Parameter: IC50. Scope: all listed entries.
Target: H1047R PIK3CA enzyme (Homo sapiens, UniProt P42336, H1047R)
Sequence (P42336 whole entry H1047R): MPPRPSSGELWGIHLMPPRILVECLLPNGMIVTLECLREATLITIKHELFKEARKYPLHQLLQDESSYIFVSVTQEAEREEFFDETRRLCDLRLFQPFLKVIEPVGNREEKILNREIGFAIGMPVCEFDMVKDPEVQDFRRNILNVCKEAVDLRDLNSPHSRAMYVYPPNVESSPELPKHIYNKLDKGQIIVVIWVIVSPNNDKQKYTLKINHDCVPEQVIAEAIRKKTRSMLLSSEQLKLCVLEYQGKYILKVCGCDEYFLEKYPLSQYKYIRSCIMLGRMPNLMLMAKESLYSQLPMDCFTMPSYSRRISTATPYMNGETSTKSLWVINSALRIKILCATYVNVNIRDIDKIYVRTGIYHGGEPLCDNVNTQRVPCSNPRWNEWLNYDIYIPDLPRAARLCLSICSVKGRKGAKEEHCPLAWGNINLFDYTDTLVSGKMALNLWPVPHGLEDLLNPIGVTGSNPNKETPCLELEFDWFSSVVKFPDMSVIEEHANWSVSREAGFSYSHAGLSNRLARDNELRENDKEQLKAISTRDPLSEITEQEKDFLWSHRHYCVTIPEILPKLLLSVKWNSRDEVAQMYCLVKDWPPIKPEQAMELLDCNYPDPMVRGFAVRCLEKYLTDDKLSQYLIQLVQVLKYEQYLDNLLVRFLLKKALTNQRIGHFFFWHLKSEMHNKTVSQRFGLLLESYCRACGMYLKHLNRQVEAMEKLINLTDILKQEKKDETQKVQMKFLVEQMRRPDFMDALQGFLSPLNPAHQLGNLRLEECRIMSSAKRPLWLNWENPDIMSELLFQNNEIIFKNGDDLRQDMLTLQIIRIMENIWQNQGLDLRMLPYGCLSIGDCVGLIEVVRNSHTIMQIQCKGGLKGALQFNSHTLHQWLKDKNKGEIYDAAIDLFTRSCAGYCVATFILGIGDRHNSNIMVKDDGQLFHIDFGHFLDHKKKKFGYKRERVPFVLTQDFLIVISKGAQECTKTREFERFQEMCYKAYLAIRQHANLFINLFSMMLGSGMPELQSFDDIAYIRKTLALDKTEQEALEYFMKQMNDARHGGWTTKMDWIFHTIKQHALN
Sequence (P27986 whole entry partner): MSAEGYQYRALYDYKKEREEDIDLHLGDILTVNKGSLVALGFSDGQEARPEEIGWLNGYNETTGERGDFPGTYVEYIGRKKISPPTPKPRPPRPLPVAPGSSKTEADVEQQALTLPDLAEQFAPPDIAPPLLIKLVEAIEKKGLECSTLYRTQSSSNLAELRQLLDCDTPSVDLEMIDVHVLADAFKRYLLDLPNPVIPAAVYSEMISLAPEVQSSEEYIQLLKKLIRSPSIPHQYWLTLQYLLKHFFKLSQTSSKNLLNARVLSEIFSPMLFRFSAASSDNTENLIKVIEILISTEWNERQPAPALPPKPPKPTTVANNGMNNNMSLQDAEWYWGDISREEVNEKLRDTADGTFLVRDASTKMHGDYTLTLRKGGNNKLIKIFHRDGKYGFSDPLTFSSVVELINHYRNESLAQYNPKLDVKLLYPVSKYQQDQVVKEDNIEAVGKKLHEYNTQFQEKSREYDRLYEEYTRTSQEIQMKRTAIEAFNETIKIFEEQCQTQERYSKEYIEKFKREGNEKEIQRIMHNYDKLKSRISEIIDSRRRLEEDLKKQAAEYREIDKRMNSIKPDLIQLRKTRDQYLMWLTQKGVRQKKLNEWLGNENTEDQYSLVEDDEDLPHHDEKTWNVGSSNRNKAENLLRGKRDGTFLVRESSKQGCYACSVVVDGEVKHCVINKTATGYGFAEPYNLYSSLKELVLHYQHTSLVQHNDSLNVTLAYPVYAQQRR
Assay: ADP-Glo Biochemical PIK3CA Kinase Assay

{"compound": "Cc1ccccc1[C@@H]1NC(=O)c2cccc(NC(=O)c3csc4ccccc34)c21", "target.system": "H1047R PIK3CA enzyme (Homo sapiens, UniProt P42336, H1047R)", "value.kind": "IC50", "endpoint.value": "≤ 0.1 µM"}
{"compound": "[2H]C([2H])(c1cc(NC(=O)c2cc(F)cc(C(F)(F)F)c2)c2c(c1)C(=O)N[C@@H]2c1cc(F)ccc1Cl)S(C)(=O)=O (single isomer, unassigned)", "target.system": "H1047R PIK3CA enzyme (Homo sapiens, UniProt P42336, H1047R)", "value.kind": "IC50", "endpoint.value": "0.1 to 0.5 µM"}
{"compound": "Cc1ccccc1C1NC(=O)c2cccc(NC(=O)c3n[nH]cc3Br)c21 (stereo not drawn)", "target.system": "H1047R PIK3CA enzyme (Homo sapiens, UniProt P42336, H1047R)", "value.kind": "IC50", "endpoint.value": "10 to 100 µM"}
{"compound": "Cc1ccccc1C1NC(=O)c2cccc(NC(=O)c3noc4c3CCCCC4)c21 (stereo not drawn)", "target.system": "H1047R PIK3CA enzyme (Homo sapiens, UniProt P42336, H1047R)", "value.kind": "IC50", "endpoint.value": "10 to 100 µM"}
{"compound": "O=C(Nc1cc(Br)cc2c1C(c1cc(F)ccc1Cl)NC2=O)c1cc(Cl)ccc1Cl (stereo not drawn)", "target.system": "H1047R PIK3CA enzyme (Homo sapiens, UniProt P42336, H1047R)", "value.kind": "IC50", "endpoint.value": "1 to 10 µM"}

GET /values?readout=IC50&item= CN1C(=O)CCC1COc1cc(NC(=O)c2cc(F)cc(C(F)(F)F)c2)c2c(c1)C(=O)NC2c1cc(F)ccc1Cl (racemic)
≤ 0.1 µM

What IC50 value was documented for this compound, O=C(Nc1cc(-c2ccc3ncnn3c2)cc2c1[C@@H](c1cc(F)ccc1Cl)NC2=O)c1cc(F)cc(OC(F)(F)F)c1 (stereo in doubt) ?
1 to 10 µM

IC50 for Cc1ccccc1-n1[nH]c(=O)c2cccc(NC(=O)c3nsc4ccccc34)c21 ?
1 to 10 µM

# input compound: O=C1N[C@@H](c2cc(F)ccc2Cl)c2c(NC(=O)N3C[C@@H](O)c4cc(F)ccc43)cccc21 (single isomer, unassigned) ; wanted: its IC50
≤ 0.1 µM

* * *

Target: H1047R PIK3CA enzyme (Homo sapiens, UniProt P42336, H1047R)
Experiment: ADP-Glo Biochemical PIK3CA Kinase Assay
pIC50: −log10 of the molar value.
Listed here: items and their measured pIC50.

Solved entries:
{"compound": "Cc1ccccc1C1NC(=O)c2cc(CO)cc(NC(=O)c3cc(F)cc(C(F)(F)F)c3)c21 (stereo not shown) [Compound I-473]", "target.system": "H1047R PIK3CA enzyme (Homo sapiens, UniProt P42336, H1047R)", "pIC50": "≥ 7.00"}
{"compound": "O=C(Nc1cc(Br)cc2c1C(c1cc(F)ccc1Cl)NC2=O)c1cc(F)cc([N+](=O)[O-])c1 (stereo not shown) [Compound I-832]", "target.system": "H1047R PIK3CA enzyme (Homo sapiens, UniProt P42336, H1047R)", "pIC50": "≥ 7.00"}
{"compound": "O=C1NC(c2cc(F)ccc2Cl)c2c(NC(=O)C3CCCC(F)(F)C3)cc(-c3ccc4ncnn4c3)cc21 (stereo not shown) [Compound I-1750]", "target.system": "H1047R PIK3CA enzyme (Homo sapiens, UniProt P42336, H1047R)", "pIC50": "5.00 to 6.00"}

Read the next record carefully.
Would you mind telling me what pIC50 value was observed for O=C1N[C@@H](c2cc(F)ccc2Cl)c2c(NC(=O)[C@H]3CCCCN3)cc(-c3ccc4ncnn4c3)cc21 (racemic) [Compound I-1779] ?
4.00 to 5.00
